Tested on: MS2 coat protein
Assay: apparent KD of MS2 coat protein; designed switch direction (-1 OFF switch, 1 ON switch): 1; higher = weaker reporter binding
Conditions: input ligand: microRNA oligo, concentration not stated
// apparent KD of MS2 coat protein lookup, one value per entry

| input sequence | apparent KD of MS2 coat protein |
| --- | --- |
| GAGCCAGUCCGAGGAUAUUCAUAACAUGAGGAUCACCCAUGUAGGCUCAGAAAAGAAGAGCCUUGGGAGAAGGCGGACUGGCUC [Xeonanisa<<5] (Eterna round: R96, puzzle: Same State NG 2) | 30.2 nM |
| AGCUAGUACCGAGGAUAUACGUACAUGAGGAUCACCCAUGUAUACAUGAUUUAAUGAGACUACAUGUAGAAGGCGGUACUAGCA [JL SSNG2 1.24] (Eterna round: R96, puzzle: Same State NG 2) | 39 nM |
| ACAUAGGGAACAGGAUAUGGGAAAAUUCCCUACAUGAGGAUCACCCAUGUCCGUAGGGACAACAUCCAGAAGGGUUACCACAUA [Eternabot solution 1] (Eterna round: R96, puzzle: Same State NG 2) | 549 nM |
| GGUCCAGCCUGAGCUGGACAAAAGCAUGUACAUGAGGAUCACCCAUGUCAUGUACAAGCUUUUUGCUCGUCUUAAAA [Mat - Sensor - JL mod - D87] (Eterna round: R96, puzzle: Sensor for hsa-mir-208a) | 14.2 nM |
| GAGAGAUGGCGAGGAUAUUCGGUGAUAAUGAUGGAAGAAGGCGCUGACAUGAGGAUCACCCAUGUGGGAAUAAUCCAGAGAGAG [Parity 16 - Jieux - Same State NG 1] (Eterna round: R96, puzzle: Same State NG 1) | 154 nM |
| GGAAUAUGAUGUUACAUGAGGAUCACCCAUGUAGUAAUAACUAAGGAUAUCUGUUAUGAUUAAUAAGAGAAGGUAGGAUCAUAA [AK SSNG3-V2-9] (Eterna round: R96, puzzle: Same State NG 3) | 19 nM |
| GAGGGCGAAAGCAACAUGAGGAUCACCCAUGUCCUCGGAGGUCAGGAUAUCCGGCGGUAGCCGAAGGAGAAGGGACGGUGAACC [AK SSNG3-V2-32.1] (Eterna round: R96, puzzle: Same State NG 3) | 97.5 nM |
| CGCAUCAUUGUUACAUGAGGAUCACCCAUGUUUUCGAGUGGAGAGGAUAUCGUAACAGUAUAAAUCGAGAAGGCUCUAUAGUAU [JR_SSNG3_Sub082] (Eterna round: R96, puzzle: Same State NG 3) | 77.1 nM |
| GGAGCCAAGGCAGGAUAUUCAUAUUAAUAAACAUGAGGAUCACCCAUGUAGGCCAGAAGGCCUUGGGAGAAGGGCCAUGGCUCG [Xeonanis - 13 mod5] (Eterna round: R96, puzzle: Same State NG 2) | 120 nM |

This collection of values is drawn from the supplement of paper PMC9170038.
